Recorded values, source the supplement of paper PMC9170038.

tested on: MS2 coat protein; test: apparent KD of MS2 coat protein; designed switch direction (-1 OFF switch, 1 ON switch): 1; higher = weaker reporter binding; details: input ligand: none

SEQ	SYSTEM	RESULT UNIT	apparent KD of MS2 coat protein
GUCGGUCUGUCGUGCUGAGGUGAUAGUUAACAUGAGGAUCACCCAUGUUGCUGUCGGGUCGUUGGGAGUUUUCUUCG [Modxample 118 - Jieux - Sensor for bsa-mir-208a] (Eterna round: R96, puzzle: Sensor for hsa-mir-208a)	MS2 coat protein	µM	0.0225
AGCUAGUACCGAGGAUAUACAUACAUGAGGAUCACCCAUGUAUACAUGAAAUAUUGAGACUACAUGUAGAAGGCGGUACUAGCA [Mat - Same State NG 2 - JL mod - D44] (Eterna round: R96, puzzle: Same State NG 2)	MS2 coat protein	µM	0.0464

----------
The entries below come with measured apparent KD of K4 kissing-loop reporter values attached.
tested on: K4 kissing-loop RNA reporter; assay: apparent KD of K4 kissing-loop reporter; higher = weaker reporter binding; details: Eterna round: R107; input ligand: FMN 200 uM;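 further: bound reporter read as fluorescence of individual clusters on recovered sequencing chips by microscopy, with normalized cluster intensities fitted with a binding model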
MEASUREMENT NAME: apparent KD of K4 kissing-loop reporter (nM)

SEQ	MEASUREMENT NAME	OBSERVED VALUE
AAUUUACAAUAAUCAUUUAAAGGAUCAGAAGGAGCGUGUUAUAACACAGGUAGGUCGCUGAGCGAGUGAUGUUCGCUAUAUACAA [JR_ExcArginiA_Sub002]	apparent KD of K4 kissing-loop reporter	76.3
CCAUCGCUAUUCGAUACCAGUCAUUUUUUAUUUUAUUUUUUUUUUGGAGUGAUGUUCCAAGACCCUUGGCAGCGAAUAGUGAUGG [whbob_SS_Theo_B_th78]	apparent KD of K4 kissing-loop reporter	119
UGGUUCAAUACGGCCGCCACUGGUGAGUGAUGUUUACCGUCUAUAUCAUGUGUCGAGAGCGCUAUCAGGACCGGGUAGGGACCGU [theeternabot_exclusion_KL_Trp_B_42]	apparent KD of K4 kissing-loop reporter	673
UUGCGGAGUGAUGUUUCGGGAUAUCGGGAAGGAGCGCCGAUAACGGCAGGUAGGUCGCCCGGUCCAGUGAUGUUGGGCAUGCAUU [Exclusion Arg A GF 23]	apparent KD of K4 kissing-loop reporter	200
AAGCAGUCACUCGCAGCCAUCGAAGAUGGGCGAGGACCGGUACGGCCGCCACUCGGAGUGAUGUUCCGCAGACUGCAAAAUAAAA	apparent KD of K4 kissing-loop reporter	536
GCCGUAGAUUGAAGGAGCGCCGCACAUGUCCCGCUUAGUGUAGUGAUGUUACAGUGUCAGCGGCAGGUAGGUCGCAAUCUACGGC	apparent KD of K4 kissing-loop reporter	85.8

----------
tested on: MS2 coat protein; assay: apparent KD of MS2 coat protein; higher = weaker reporter binding; conditions: Eterna round: R107; input ligand: arginine 13.2 mM
MEASUREMENT NAME: apparent KD of MS2 coat protein (µM)

>>> print(df.to_string())
                                        seq  observed_value
0  GAUUAAACAUGAGGAUCACCCAUGUAUAUACGAGGACCGGUACGGCCGCCACUCGAAAACGAGUAUCCUCGAAUAAACAUGAUAA [AK 2 SS Trypt (A)]          0.0277
1  GACCGGUUAUAGCGCGAUUGUCUUGUGGAAGGAGCGCAGAGGGCUGCAGGUAGGUCGCCACAUGAGGAUCACCCAUGUCAGGAAA [Biraesge]          0.0281
2  CACGCACGAUCGGCCGCCACUCGUGUAGCUUACAUGAGGAUCACCCAUGUAUGUUCAUUCAUAUAGAGGACCGGGAUCGUGCGUG [#05 Same State - Tryptophan B]         0.00909
